Just for reference, patent EP0067666A1 is where these values come from.

Test: 10x dilution of soluble forms with standard IV solutions (pH, precipitate)
Assay type: physicochemical
Conditions: concentrated Cpd B solution (154-221 mg/ml) diluted 10x with 5% Dextrose + 0.9% NaCl
Here, each record is paired with measured Solution 3 pH dil data.
MEASURED ATTRIBUTE: Solution 3 pH dil

- COMPOUND: "CCn1cc(C(=O)O)c(=O)c2cc(F)c(N3CCNCC3)nc21 [B L-Glutamic]"
  VALUE REPORTED: 4.95
- COMPOUND: "CCn1cc(C(=O)O)c(=O)c2cc(F)c(N3CCNCC3)nc21 [B L-Cysteic]"
  VALUE REPORTED: 2.8
- COMPOUND: "CCn1cc(C(=O)O)c(=O)c2cc(F)c(N3CCNCC3)nc21 [B L-Aspartic]"
  VALUE REPORTED: 4.71

###

Test: 10x dilution of soluble forms with standard IV solutions (pH, precipitate)
Assay type: physicochemical
Details: low-concentration Cpd B solution (26.2-52 mg/ml) diluted 10x with 0.9% NaCl

- COMPOUND: "CCn1cc(C(=O)O)c(=O)c2cc(F)c(N3CCNCC3)nc21 [B L-Glutamic]"
  Solution 1 pH dil: 4.99
- COMPOUND: "CCn1cc(C(=O)O)c(=O)c2cc(F)c(N3CCNCC3)nc21 [B L-Aspartic]"
  Solution 1 pH dil: 5.54
- COMPOUND: "CCn1cc(C(=O)O)c(=O)c2cc(F)c(N3CCNCC3)nc21 [B L-Cysteic]"
  Solution 1 pH dil: 3.29
- COMPOUND: "CCn1cc(C(=O)O)c(=O)c2cc(F)c(N3CCNCC3)nc21 [B Methane Sulphonic]"
  Solution 1 pH dil: 4.47
- COMPOUND: "CCn1cc(C(=O)O)c(=O)c2cc(F)c(N3CCNCC3)nc21 [B Isethionic]"
  Solution 1 pH dil: 3.05

###

Test: 10x dilution of soluble forms with standard IV solutions (pH, precipitate)
Format: physicochemical
Conditions: concentrated Cpd B solution (154-221 mg/ml) diluted 10x with 5% Dextrose
Items are presented alongside their recorded Solution 2 pH dil.

- COMPOUND: "CCn1cc(C(=O)O)c(=O)c2cc(F)c(N3CCNCC3)nc21 [B Lactic]"
  Solution 2 pH dil: 4.2
- COMPOUND: "CCn1cc(C(=O)O)c(=O)c2cc(F)c(N3CCNCC3)nc21 [B L-Glutamic]"
  Solution 2 pH dil: 5.06
- COMPOUND: "CCn1cc(C(=O)O)c(=O)c2cc(F)c(N3CCNCC3)nc21 [B L-Cysteic]"
  Solution 2 pH dil: 2.9
- COMPOUND: "CCn1cc(C(=O)O)c(=O)c2cc(F)c(N3CCNCC3)nc21 [B D-Gluconic]"
  Solution 2 pH dil: 4.5
- COMPOUND: "CCn1cc(C(=O)O)c(=O)c2cc(F)c(N3CCNCC3)nc21 [B Isethionic]"
  Solution 2 pH dil: 2.35
- COMPOUND: "CCn1cc(C(=O)O)c(=O)c2cc(F)c(N3CCNCC3)nc21 [B Acetic]"
  Solution 2 pH dil: 5.6
- COMPOUND: "CCn1cc(C(=O)O)c(=O)c2cc(F)c(N3CCNCC3)nc21 [B Methane Sulphonic]"
  Solution 2 pH dil: 3.2
- COMPOUND: "CCn1cc(C(=O)O)c(=O)c2cc(F)c(N3CCNCC3)nc21 [B L-Aspartic]"
  Solution 2 pH dil: 4.83

###

Assay: 10x dilution of soluble forms with standard IV solutions (pH, precipitate)
Type: physicochemical
Conditions: undiluted concentrated Cpd B solution used for the Solution 1 dilution
MEASURED ATTRIBUTE: pH of Solut.

- MOLECULE: "CCn1cc(C(=O)O)c(=O)c2cc(F)c(N3CCNCC3)nc21 [B D-Gluconic]"
  VALUE REPORTED: 4.6
- MOLECULE: "CCn1cc(C(=O)O)c(=O)c2cc(F)c(N3CCNCC3)nc21 [B Methane Sulphonic]"
  VALUE REPORTED: 1.38
- MOLECULE: "CCn1cc(C(=O)O)c(=O)c2cc(F)c(N3CCNCC3)nc21 [B Acetic]"
  VALUE REPORTED: 4.97
- MOLECULE: "CCn1cc(C(=O)O)c(=O)c2cc(F)c(N3CCNCC3)nc21 [B Isethionic]"
  VALUE REPORTED: 1.01
- MOLECULE: "CCn1cc(C(=O)O)c(=O)c2cc(F)c(N3CCNCC3)nc21 [B L-Glutamic]"
  VALUE REPORTED: 4.98
- MOLECULE: "CCn1cc(C(=O)O)c(=O)c2cc(F)c(N3CCNCC3)nc21 [B L-Cysteic]"
  VALUE REPORTED: 2.78
- MOLECULE: "CCn1cc(C(=O)O)c(=O)c2cc(F)c(N3CCNCC3)nc21 [B Lactic]"
  VALUE REPORTED: 4.04
- MOLECULE: "CCn1cc(C(=O)O)c(=O)c2cc(F)c(N3CCNCC3)nc21 [B L-Aspartic]"
  VALUE REPORTED: 4.64

###

Assay: Solubility of lyophilized and crystalline solids
Assay type: physicochemical
Conditions: CPD A salt, lyophilized solid
Catalogue of pH of Solution Lyo. readings, one per entry.
MEASURED ATTRIBUTE: pH of Solution Lyo.

- COMPOUND: "CCn1cc(C(=O)O)c(=O)c2cc(F)c(N3CCNCC3)cc21 [A D-Galacturonic]"
  VALUE REPORTED: 4.0
- COMPOUND: "CCn1cc(C(=O)O)c(=O)c2cc(F)c(N3CCNCC3)cc21 [A D-Gluconic]"
  VALUE REPORTED: 5.1
- COMPOUND: "CCn1cc(C(=O)O)c(=O)c2cc(F)c(N3CCNCC3)cc21 [A Lactic]"
  VALUE REPORTED: 4.6
- COMPOUND: "CCn1cc(C(=O)O)c(=O)c2cc(F)c(N3CCNCC3)cc21 [A L-Aspartic]"
  VALUE REPORTED: 4.5
- COMPOUND: "CCn1cc(C(=O)O)c(=O)c2cc(F)c(N3CCNCC3)cc21 [A L-Glutamic]"
  VALUE REPORTED: 5.2

###

Test: Solubility screening procedure (concentration and pH of filtrate)
Format: physicochemical
Conditions: compound B + equimolar acid, amino acid or base in deionized water, room temperature, filtrate, UV assay

- MOLECULE: "CCn1cc(C(=O)O)c(=O)c2cc(F)c(N3CCNCC3)nc21 [B Gluconic]"
  UNITS SYMBOL: "mg/mL"
  Conc. of CPD B: 168
- MOLECULE: "CCn1cc(C(=O)O)c(=O)c2cc(F)c(N3CCNCC3)nc21 [B L-Cysteic]"
  UNITS SYMBOL: "mg/mL"
  Conc. of CPD B: 221
- MOLECULE: "CCn1cc(C(=O)O)c(=O)c2cc(F)c(N3CCNCC3)nc21 [B L-Lysine]"
  UNITS SYMBOL: "mg/mL"
  Conc. of CPD B: 4.3

###

Assay: 10x dilution of soluble forms with standard IV solutions (pH, precipitate)
Type: physicochemical
Settings: Cpd A salt solution diluted 10x with Lactated Ringer's Solution
MEASURED ATTRIBUTE: Solution 4 pH dil

- COMPOUND: "CCn1cc(C(=O)O)c(=O)c2cc(F)c(N3CCNCC3)cc21 [A D-Galacturonic]"
  MEASURED ATTRIBUTE: "Solution 4 pH dil"
  VALUE REPORTED: 5.36
- COMPOUND: "CCn1cc(C(=O)O)c(=O)c2cc(F)c(N3CCNCC3)cc21 [A Acetic]"
  MEASURED ATTRIBUTE: "Solution 4 pH dil"
  VALUE REPORTED: 5.3
- COMPOUND: "CCn1cc(C(=O)O)c(=O)c2cc(F)c(N3CCNCC3)cc21 [A L-Glutamic]"
  MEASURED ATTRIBUTE: "Solution 4 pH dil"
  VALUE REPORTED: 5.15
- COMPOUND: "CCn1cc(C(=O)O)c(=O)c2cc(F)c(N3CCNCC3)cc21 [A Hydrochloric]"
  MEASURED ATTRIBUTE: "Solution 4 pH dil"
  VALUE REPORTED: 4.6
- COMPOUND: "CCn1cc(C(=O)O)c(=O)c2cc(F)c(N3CCNCC3)cc21 [A D-Gluconic]"
  MEASURED ATTRIBUTE: "Solution 4 pH dil"
  VALUE REPORTED: 4.7
- COMPOUND: "CCn1cc(C(=O)O)c(=O)c2cc(F)c(N3CCNCC3)cc21 [A L-Cysteic]"
  MEASURED ATTRIBUTE: "Solution 4 pH dil"
  VALUE REPORTED: 3.70
- COMPOUND: "CCn1cc(C(=O)O)c(=O)c2cc(F)c(N3CCNCC3)cc21 [A Methane Sulphonic]"
  MEASURED ATTRIBUTE: "Solution 4 pH dil"
  VALUE REPORTED: 4.5
- COMPOUND: "CCn1cc(C(=O)O)c(=O)c2cc(F)c(N3CCNCC3)cc21 [A L-Aspartic]"
  MEASURED ATTRIBUTE: "Solution 4 pH dil"
  VALUE REPORTED: 5.02
- COMPOUND: "CCn1cc(C(=O)O)c(=O)c2cc(F)c(N3CCNCC3)cc21 [A Lactic]"
  MEASURED ATTRIBUTE: "Solution 4 pH dil"
  VALUE REPORTED: 4.5
- COMPOUND: "CCn1cc(C(=O)O)c(=O)c2cc(F)c(N3CCNCC3)cc21 [A Isethionic]"
  MEASURED ATTRIBUTE: "Solution 4 pH dil"
  VALUE REPORTED: 3.70
